Target: T1, monoclonal antibody EGX-P-E9
T1 construct: Mouse IgG purified from hybridoma medium with Protein G; also called anti-PAMP EGX-P-E9 IgG; antibody of hybridoma clone PTA-7958
T1 sequence (VH, as listed by the source, chain 1 of 2): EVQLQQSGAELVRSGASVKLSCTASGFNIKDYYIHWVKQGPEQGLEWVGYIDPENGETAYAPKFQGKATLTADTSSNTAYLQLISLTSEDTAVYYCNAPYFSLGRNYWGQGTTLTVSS
T1 sequence (VL, as listed by the source, chain 2 of 2): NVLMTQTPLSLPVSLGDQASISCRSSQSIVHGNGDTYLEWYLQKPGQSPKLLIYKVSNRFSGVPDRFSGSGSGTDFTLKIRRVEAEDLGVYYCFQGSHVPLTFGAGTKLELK
Assay: competitive ELISA: EGX-P-E9-coated wells, 10 nM biotinylated human full-length PAMP plus 1 µM (100x) unlabeled competitor peptide, streptavidin-peroxidase, OD
No end group written: not given here.
quantity measured: binding result

The following binders have reported results that may help.
KWNKWALSR (not fully specified (C-terminus); ends and bridges not checked, also called N-terminally truncated human PAMP, residues 12-20) [human PAMP (12-20)] = binds
EFRKKWNKWALSR (ends and bridges not checked, also called N-terminally truncated human PAMP, residues 8-20) [human PAMP (8-20)] = binds
AGPDTPSQFRKKWNKWALSR-NH2 [mouse PAMP] = binds
RKKWNKWALSR (ends and bridges not checked, also called N-terminally truncated human PAMP, residues 10-20) [human PAMP (10-20)] = binds
ARLDTSSQFRKKWNKWALSR-NH2 [Rat PAMP] = binds

Please find the next binder below.
State its binding result for this binder: WNKWALSR (ends and bridges not checked, also called N-terminally truncated human PAMP, residues 13-20; C-terminal-most 8 residues of PAMP) [human PAMP (13-20)] binds
